Test system: Vero E6
Test: cell viability relative to DMSO; higher = less toxic
Conditions: 72 h; 1 nM
MEASUREMENT LABEL: cell viability
// unit must come after the numeric part

Use the examples below as a reference point.
COMPOUND: O=C(/C=C/c1ccccc1)NCCO
VALUE OBSERVED: 104%
--
COMPOUND: O=C(O)/C=C\c1c[nH]cn1 [cis-Urocanic acid]
VALUE OBSERVED: 99.5%
--
COMPOUND: O=c1c(O[C@@H]2O[C@H](CO)[C@H](O)[C@H](O)[C@H]2O)c(-c2ccc(O)c(O)c2)oc2cc(O)cc(O)c12
VALUE OBSERVED: 98%
--
COMPOUND: COc1cc(NS(=O)(=O)c2ccc(N)cc2)nc(OC)n1
VALUE OBSERVED: 100%

Given the entry O=C1C=CC[C@@H]2[C@H]3CCCN4CCC[C@@H](CN12)[C@@H]34 , report its measured cell viability. 97.8%

Check COc1cc(OC2CCN(C)CC2)ccc1Nc1ncc2c(n1)n(C1CCCC1)c(=O)n2C too. 111%

Check Clc1ccc(CO/N=C(\Cn2ccnc2)c2ccc(Cl)cc2Cl)c(Cl)c1 too. 99.9%

Check OC(CN1CCN(c2cccc(Cl)c2)CC1)C(c1ccccc1)c1ccccc1 (centres undefined) too. 95.5%

Check CC12CC3CC(C)(C1)CC(N)(C3)C2 [memantine] too. 106%

###

System: Calu-3
Assay: cell viability relative to DMSO; higher = less toxic
Conditions: 72 h; 1 nM
Item-by-item account of cell viability
Please give a number only; it is taken to be in %.

Use the examples below as a reference point.
COMPOUND: C=C[C@@H]1C[C@]1(NC(=O)[C@@H]1C[C@@H]2CN1C(=O)[C@H](C(C)(C)C)NC(=O)O[C@@H]1C[C@H]1CCCCCc1nc3ccc(OC)cc3nc1O2)C(=O)NS(=O)(=O)C1CC1 [grazoprevir]
READOUT UNIT: %
cell viability: 103
//
COMPOUND: O=C(NCCO)c1cc(C(=O)NCCO)cc(C(=O)NCCO)c1 [LM-22A4]
READOUT UNIT: %
cell viability: 104
//
COMPOUND: COc1c(OCCCN2CCOCC2)ccc2c1N=C(NC(=O)c1cnc(N)nc1)N1CCN=C21 [copanlisib]
READOUT UNIT: %
cell viability: 102
//
COMPOUND: O=C(NCc1cccc(O)c1)Nc1nc(-c2ccncc2)cs1 [RKI-1447]
READOUT UNIT: %
cell viability: 97.9
//
COMPOUND: Cc1noc(NS(=O)(=O)c2ccc(N)cc2)c1C [sulfafurazole]
READOUT UNIT: %
cell viability: 96.2

Request body: readout cell viability, system Calu-3, query CCc1nn(CCCN2CCN(c3cccc(Cl)c3)CC2)c(=O)n1CCOc1ccccc1 [nefazodone] . Return the value. 103

Check Cc1ccc(O)c([C@H](CCN(C(C)C)C(C)C)c2ccccc2)c1 [tolterodine] too. 99.7

Check CC(C)(C)NCC(O)c1cc(O)cc(O)c1 (configuration not stated) [TERBUTALINE HEMISULFATE] too. 104

###

Test system: HepG2
Experiment: cell viability relative to DMSO; higher = less toxic
Conditions: 72 h; 10000 nM
Item-by-item account of cell viability
Please give a number only; it is taken to be in %.

Use the examples below as a reference point.
COMPOUND: NCCc1ccc(O)c(O)c1 [dopamine]
READOUT UNIT: %
VALUE OBSERVED: 99.6
//
COMPOUND: C=C[C@@H]1C[C@]1(NC(=O)[C@@H]1C[C@@H]2CN1C(=O)[C@H](C(C)(C)C)NC(=O)O[C@@H]1C[C@H]1CCCCCc1nc3ccc(OC)cc3nc1O2)C(=O)NS(=O)(=O)C1CC1 [grazoprevir]
READOUT UNIT: %
VALUE OBSERVED: 106
//
COMPOUND: CCN1CCC(n2cc(CNc3cc(Cl)c4ncc(C#N)c(Nc5ccc(F)c(Cl)c5)c4c3)nn2)CC1 [cot-inhibitor-2]
READOUT UNIT: %
VALUE OBSERVED: 43.9

Given the entry Cn1c(=O)c2c(ncn2CCO)n(C)c1=O [etofylline] , report its measured cell viability. 102

Check COc1cc(/C=C2\CCCN([C@@H](C)c3ccc(F)cc3)C2=O)ccc1-n1cnc(C)c1 [E-2012] too. 60.1

Check Cc1cc(O)ccc1Cl [chlorocresol] too. 102

Check N=C(C[C@@H](O)COc1ccccc1-c1ccccc1)N1CCCCC1 too. 101

Check Cc1cccc(/C=C/c2ccccc2)n1 [SIB-1893] too. 94.2

Check O=C(O)/C=C\c1c[nH]cn1 [cis-Urocanic acid] too. 95.2

###

System: HepG2
Test: relative viability EC50 (midpoint between 100% and the lowest measured viability); higher = less toxic
Settings: 72 h
MEASUREMENT LABEL: relative viability EC50

Given the entry CCCCN(CCCC)CCCOC(=O)c1ccc(N)cc1 , report its measured relative viability EC50. > 10 µM

Check CC1=C(C(=O)O)N2C(=O)[C@@H](NC(=O)[C@H](N)C3=CCC=CC3)[C@H]2SC1 too. > 10 µM

Check CCCCCCCCCCCCCC(=O)[O-].CCCCCCCCCCCCCC(=O)[O-].N[C@@H]1CCCC[C@H]1N.[Pt+2] too. > 10 µM

###

Test system: U2OS
Test: drug sensitivity score (DSS) for viability; higher = more toxic; extreme values may be limits of the assay
Settings: 72 h
MEASUREMENT LABEL: drug sensitivity score
Response field accepts a number only; no unit should be typed.

Use the examples below as a reference point.
COMPOUND: Cc1cnc(Nc2ccc(OCCN3CCCC3)cc2)nc1Nc1cccc(S(=O)(=O)NC(C)(C)C)c1
VALUE OBSERVED: 7.8
--
COMPOUND: C=CCN1C[C@H](C)N([C@H](c2ccc(C(=O)N(CC)CC)cc2)c2cccc(O)c2)C[C@H]1C
VALUE OBSERVED: 0
--
COMPOUND: CN[C@H](CC(C)C)C(=O)N[C@H]1C(=O)N[C@@H](CC(N)=O)C(=O)N[C@H]2C(=O)N[C@H]3C(=O)N[C@H](C(=O)N[C@H](C(=O)O)c4cc(O)cc(O)c4-c4cc3ccc4O)[C@H](O[C@H]3C[C@](C)(N)[C@@H](O)[C@H](C)O3)c3ccc(c(Cl)c3)Oc3cc2cc(c3O[C@@H]2O[C@H](CO)[C@@H](O)[C@H](O)[C@H]2O[C@H]2C[C@](C)(NCc3ccc(-c4ccc(Cl)cc4)cc3)[C@@H](O)[C@H](C)O2)Oc2ccc(cc2Cl)[C@H]1O
VALUE OBSERVED: 0
--
COMPOUND: CC(=O)OCC(=O)[C@@]1(O)CC[C@H]2[C@@H]3CCC4=CC(=O)C=C[C@]4(C)[C@H]3[C@@H](O)C[C@@]21C [prednisolone-acetate]
VALUE OBSERVED: 0
--
COMPOUND: CCCCOc1ccc(C(=O)Nc2ccc(F)cc2F)cc1
VALUE OBSERVED: 0
--
COMPOUND: CN(C)Cc1c(C(=O)NCCOc2ccc(C(=O)NO)cc2)oc2ccccc12
VALUE OBSERVED: 17.6
--
COMPOUND: CCCN(CCC)[C@H]1CCc2ccc(O)cc2C1 [7-hydroxy-DPAT]
VALUE OBSERVED: 0
--
COMPOUND: CCOC(=O)Nc1cc(-c2ccc(C)c(NS(C)(=O)=O)c2)nn2c(C)nnc12
VALUE OBSERVED: 7.6

We now examine a further compound.
Given the entry O=S(=O)(NCC1CC1)c1ccc(Nc2nccc(N3CCCc4cc(O)ccc43)n2)cc1 , report its measured drug sensitivity score. 2.5

###

System: U2OS
Experiment: cell viability relative to DMSO; higher = less toxic
Conditions: 72 h; 1 nM
MEASUREMENT LABEL: cell viability (%)
Please give a number only; it is taken to be in %.

Given the entry O=C(CC12CC3CC(CC(C3)C1)C2)Nc1cccc2nc(NCCNCCO)ccc12 , report its measured cell viability. 96.1

Check CCN(c1nc(N)c(C(=O)NC(=N)N)nc1Cl)C(C)C too. 99.7

Check CC(=O)OCC(=O)[C@@]1(O)CC[C@H]2[C@@H]3CCC4=CC(=O)C=C[C@]4(C)[C@H]3[C@@H](O)C[C@@]21C [prednisolone-acetate] too. 110

Check CC12CC3CC(C)(C1)CC(N)(C3)C2 [memantine] too. 97.3

Check CN1[C@@H]2CC[C@H]1C[C@@H](OC(=O)N1Cc3ccccc3NC1=O)C2 too. 97.2

Check COc1ccc2c3c1O[C@H]1C[C@@H](O)C=C[C@@]31CCN(C)C2 too. 101

Check CC1(C)S[C@@H]2[C@H](NC(=O)COc3ccccc3)C(=O)N2[C@H]1C(=O)O too. 101

Check CN1CC[C@@H](c2c(O)cc(O)c3c(=O)cc(-c4ccccc4Cl)oc23)[C@@H]1CO too. 97.6
